Give pIC50 for every item shown.
target: CYP2D6 (Homo sapiens (Human), UniProt P10635); assay: biochemical; assay type: biochemical; details: human recombinant CYP2D6, AMMC substrate; read-out: CYP450 IC50 2D6
Sequence (P10635 whole entry): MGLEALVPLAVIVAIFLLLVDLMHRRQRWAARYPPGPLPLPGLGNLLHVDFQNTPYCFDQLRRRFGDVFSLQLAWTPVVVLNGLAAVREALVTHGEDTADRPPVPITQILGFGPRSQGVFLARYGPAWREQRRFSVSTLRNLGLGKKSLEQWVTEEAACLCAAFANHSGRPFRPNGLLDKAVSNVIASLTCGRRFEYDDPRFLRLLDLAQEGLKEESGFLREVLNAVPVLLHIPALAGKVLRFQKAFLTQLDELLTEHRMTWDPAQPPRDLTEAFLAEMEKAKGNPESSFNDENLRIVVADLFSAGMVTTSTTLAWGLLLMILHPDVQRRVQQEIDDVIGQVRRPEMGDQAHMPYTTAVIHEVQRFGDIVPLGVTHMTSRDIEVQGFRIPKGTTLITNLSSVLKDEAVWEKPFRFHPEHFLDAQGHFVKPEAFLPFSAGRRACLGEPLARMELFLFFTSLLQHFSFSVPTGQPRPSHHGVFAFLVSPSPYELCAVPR
FYI, pIC50 means -log10 of a concentration in mol per litre.

// field: pIC50; key: `CCCCCCCCCCCCCCCCCCOP(=O)(O)CO[C@H](C)Cn1cnc2c(N)ncnc21.N` ; value = 4.70

// field: pIC50; key: `C[C@H](Cn1cnc2c(N)ncnc21)OCP(=O)(O)OCCCCCCCCCCCCCCCCCC[Si](C)(C)C.N` ; value = 4.79

// field: pIC50; key: `CCCCCCCCCCCCCCCCSCCCOP(=O)(O)CO[C@H](C)Cn1cnc2c(N)ncnc21` ; value = 3.96

// field: pIC50; key: `C[C@H](Cn1cnc2c(N)ncnc21)OCP(=O)(O)OCCCSCCCCCCCCCCCSc1ccccc1.N` ; value = 4.44

// field: pIC50; key: `C#CCCCCCCCCCCCCCCCCSCCCOP(=O)(O)CO[C@H](C)Cn1cnc2c(N)ncnc21.N` ; value = 4.69

// field: pIC50; key: `C#CCCCCCCCCCCCCCCCCOP(=O)(O)CO[C@H](C)Cn1cnc2c(N)ncnc21.N` ; value = 5.62

// field: pIC50; key: `C[C@H](Cn1cnc2c(N)ncnc21)OCP(=O)(O)OCCCCCCCCCCCCCCCCC#C[Si](C)(C)C.N` ; value = 4.57

---

experiment: Metabolic stability assay in human liver microsomes (HLM); format: in vitro ADME; conditions: 3 μM test compound, NADPH, sampled 0-120 min
endpoint_label: HLM t1/2 (h)
Note: unit h is implicit; provide only the numeric part.

// field: HLM t1/2; key: `CCCCCCCCCCCCCCCOP(=O)(O)CO[C@H](C)Cn1cnc2c(N)ncnc21.N` ; value = 0.217

// field: HLM t1/2; key: `CCCCCCCCCCCCCCCCCCOP(=O)(O)CO[C@H](C)Cn1cnc2c(N)ncnc21.N` ; value = 0.217

---

Give IC50 for every item shown.
molecular target: CYP2D6 (Homo sapiens (Human)); experiment: biochemical; type: biochemical; conditions: human recombinant CYP2D6, AMMC substrate; read-out: CYP450 IC50 2D6
Note: unit µM is implicit; provide only the numeric part.

Kindly note: CYP2D6 (Homo sapiens (Human)), C#CCCCCCCCCCCCCCOP(=O)(O)CO[C@H](C)Cn1cnc2c(N)ncnc21.N [EJM-8-006] , IC50 value reported: 84.9

Kindly note: CYP2D6 (Homo sapiens (Human)), COC(=O)CCCCCCCCCCCCCCCSCCCOP(=O)(O)CO[C@H](C)Cn1cnc2c(N)ncnc21.N [MD-1-124] , IC50 value reported: 19.2

Kindly note: CYP2D6 (Homo sapiens (Human)), CCCCCCCCCCCCCCCOP(=O)(O)CO[C@H](C)Cn1cnc2c(N)ncnc21.N [MD-1-106] , IC50 value reported: 22

Kindly note: CYP2D6 (Homo sapiens (Human)), C#CCCCCCCCCCCCCCCCCCCOP(=O)(O)CO[C@H](C)Cn1cnc2c(N)ncnc21.N [Compound B1-1-065] , IC50 value reported: 21.9

---

Give IC50 for every item shown.
biological target: CYP3A4 (Homo sapiens (Human)); assay: Fluorometric CYP450 enzyme inhibition assay, CYP3A4; format: biochemical; settings: human recombinant CYP3A4, BFC substrate; read-out: CYP450 IC50 3A4
Sequence (P08684 whole entry): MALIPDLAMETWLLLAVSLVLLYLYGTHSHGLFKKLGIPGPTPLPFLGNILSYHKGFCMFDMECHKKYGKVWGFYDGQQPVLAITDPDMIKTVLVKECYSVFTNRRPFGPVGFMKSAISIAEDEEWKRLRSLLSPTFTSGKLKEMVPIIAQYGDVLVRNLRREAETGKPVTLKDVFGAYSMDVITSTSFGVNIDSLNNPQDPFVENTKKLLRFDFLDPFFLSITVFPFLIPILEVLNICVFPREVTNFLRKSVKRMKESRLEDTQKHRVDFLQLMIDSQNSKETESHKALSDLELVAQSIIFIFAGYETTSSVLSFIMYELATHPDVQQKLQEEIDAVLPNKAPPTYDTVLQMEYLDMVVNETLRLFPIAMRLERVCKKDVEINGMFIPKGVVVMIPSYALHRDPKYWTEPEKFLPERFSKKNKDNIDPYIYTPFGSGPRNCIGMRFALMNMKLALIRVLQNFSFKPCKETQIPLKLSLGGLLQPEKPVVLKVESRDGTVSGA
Where a name gives a salt, the structure may show the parent alone.
Note: unit µM is implicit; provide only the numeric part.

// field: IC50; key: `C[C@H](Cn1cnc2c(N)ncnc21)OCP(=O)(O)OCCCCCCCCCCCCCCCCC#C[Si](C)(C)C.N` ; value = 27

// field: IC50; key: CC(C)OC(=O)[C@H](C)N[P@](=O)(CO[C@H](C)Cn1cnc2c(N)ncnc21)Oc1ccccc1 [TAF, tenofovir alafenamide fumarate] ; value = 21
